Listing of entries alongside the reported logP at 1 h.
test: Partition coefficient, log P after 1 hr by UV spectroscopy; assay type: physicochemical; details: octanol/water
Reported Endpoint: logP at 1 h

[
  {
    "Compound Smiles": "CC(=O)[C@H]1CC[C@H]2[C@@H]3CC=C4C[C@@H](OC(=O)CCCc5ccc(N(CCCl)CCCl)c([N+](=O)[O-])c5)CC[C@]4(C)[C@H]3CC[C@]12C",
    "Reported Endpoint": "logP at 1 h",
    "Value": "> 8"
  },
  {
    "Compound Smiles": "C[C@]12CC[C@H](OC(=O)CCCc3ccc(N(CCCl)CCCl)c([N+](=O)[O-])c3)CC1=CC[C@@H]1[C@@H]2CC[C@]2(C)C(=O)CC[C@@H]12",
    "Reported Endpoint": "logP at 1 h",
    "Value": "> 8"
  },
  {
    "Compound Smiles": "O=C(O)CCCc1ccc(N(CCCl)CCCl)cc1",
    "Reported Endpoint": "logP at 1 h",
    "Value": 3.8
  },
  {
    "Compound Smiles": "CC(=O)[C@H]1CC[C@H]2[C@@H]3CC=C4C[C@@H](OC(=O)CCCc5ccc(N(CCCl)CCCl)cc5)CC[C@]4(C)[C@H]3CC[C@]12C",
    "Reported Endpoint": "logP at 1 h",
    "Value": "> 8"
  },
  {
    "Compound Smiles": "O=C(O)CCCc1ccc(N(CCCl)CCCl)c([N+](=O)[O-])c1",
    "Reported Endpoint": "logP at 1 h",
    "Value": 3.7
  },
  {
    "Compound Smiles": "C[C@]12CC[C@H](OC(=O)CCCc3ccc(N(CCCl)CCCl)cc3)CC1=CC[C@@H]1[C@@H]2CC[C@]2(C)C(=O)CC[C@@H]12",
    "Reported Endpoint": "logP at 1 h",
    "Value": "> 8"
  }
]

###

test: Metabolic stability in rat blood assessed as half life; assay type: ADME, tissue-based

[
  {
    "Compound Smiles": "CC(C)(C)OC(=O)CCCc1ccc(N(CCCl)CCCl)cc1",
    "Value Unit": "h",
    "half-life": 7
  }
]

###

assay: Alkylating activity in 0.2 M acetate buffer of pH 5.6 at 0.1 to 1 mM after 4 hrs by spectrophotometry relative to chlorambucil; assay type: physicochemical; settings: pH 5.6, 4 h, 1000 µM
1.0 if Activity is below 8%. 0.0 if not; exact matches included in 0.0.

[
  {
    "Molecule": "O=C(O)CCCc1ccc(N(CCCl)CCCl)cc1 [CHLORAMBUCIL]",
    "Label": 0.0
  },
  {
    "Molecule": "CC(=O)[C@H]1CC[C@H]2[C@@H]3CC=C4C[C@@H](OC(=O)CCCc5ccc(N(CCCl)CCCl)c([N+](=O)[O-])c5)CC[C@]4(C)[C@H]3CC[C@]12C",
    "Label": 1.0
  },
  {
    "Molecule": "CC(=O)[C@H]1CC[C@H]2[C@@H]3CC=C4C[C@@H](OC(=O)CCCc5ccc(N(CCCl)CCCl)cc5)CC[C@]4(C)[C@H]3CC[C@]12C",
    "Label": 0.0
  },
  {
    "Molecule": "O=C(O)CCCc1ccc(N(CCCl)CCCl)c([N+](=O)[O-])c1",
    "Label": 0.0
  },
  {
    "Molecule": "C[C@]12CC[C@H](OC(=O)CCCc3ccc(N(CCCl)CCCl)cc3)CC1=CC[C@@H]1[C@@H]2CC[C@]2(C)C(=O)CC[C@@H]12",
    "Label": 0.0
  }
]

###

Measured pIC50, listed per entry for reference.
experiment: Cytotoxicity against human OVCA3 cells after 5 days by MTT assay; assay type: functional, cell-based; conditions: OVCA3, 120 h
pIC50: −log10 of the molar value.
Reported Endpoint: pIC50

[
  {
    "Compound Smiles": "O=C(O)CCCc1ccc(N(CCCl)CCCl)c([N+](=O)[O-])c1",
    "Reported Endpoint": "pIC50",
    "Qualifier Operator": "=",
    "Value": 4.81
  },
  {
    "Compound Smiles": "CC(=O)[C@H]1CC[C@H]2[C@@H]3CC=C4C[C@@H](OC(=O)CCCc5ccc(N(CCCl)CCCl)c([N+](=O)[O-])c5)CC[C@]4(C)[C@H]3CC[C@]12C",
    "Reported Endpoint": "pIC50",
    "Qualifier Operator": "<",
    "Value": 4.00
  },
  {
    "Compound Smiles": "C[C@]12CC[C@H](OC(=O)CCCc3ccc(N(CCCl)CCCl)cc3)CC1=CC[C@@H]1[C@@H]2CC[C@]2(C)C(=O)CC[C@@H]12",
    "Reported Endpoint": "pIC50",
    "Qualifier Operator": "=",
    "Value": 4.08
  },
  {
    "Compound Smiles": "C[C@]12CC[C@H](OC(=O)CCCc3ccc(N(CCCl)CCCl)c([N+](=O)[O-])c3)CC1=CC[C@@H]1[C@@H]2CC[C@]2(C)C(=O)CC[C@@H]12",
    "Reported Endpoint": "pIC50",
    "Qualifier Operator": "<",
    "Value": 4.00
  },
  {
    "Compound Smiles": "CC(=O)[C@H]1CC[C@H]2[C@@H]3CC=C4C[C@@H](OC(=O)CCCc5ccc(N(CCCl)CCCl)cc5)CC[C@]4(C)[C@H]3CC[C@]12C",
    "Reported Endpoint": "pIC50",
    "Qualifier Operator": "=",
    "Value": 4.05
  },
  {
    "Compound Smiles": "O=C(O)CCCc1ccc(N(CCCl)CCCl)cc1",
    "Reported Endpoint": "pIC50",
    "Qualifier Operator": "=",
    "Value": 5.05
  }
]

###

experiment: Chemical stability in phosphate buffer saline at pH 7.4 assessed as compound degradation by HPLC analysis; type: physicochemical; conditions: read-out: Activity

[
  {
    "Compound Smiles": "C[C@]12CC[C@H](OC(=O)CCCc3ccc(N(CCCl)CCCl)c([N+](=O)[O-])c3)CC1=CC[C@@H]1[C@@H]2CC[C@]2(C)C(=O)CC[C@@H]12",
    "Value Unit": "%",
    "degraded": 46
  },
  {
    "Compound Smiles": "CC(=O)[C@H]1CC[C@H]2[C@@H]3CC=C4C[C@@H](OC(=O)CCCc5ccc(N(CCCl)CCCl)c([N+](=O)[O-])c5)CC[C@]4(C)[C@H]3CC[C@]12C",
    "Value Unit": "%",
    "degraded": 48
  }
]

###

The reader will find reported metabolised at 24 h values listed item by item below.
test: Metabolic stability in human plasma assessed as rate of hydrolysis after 24 hrs; assay type: ADME, cell-free; conditions: read-out: Activity

[
  {
    "Compound Smiles": "CC(=O)[C@H]1CC[C@H]2[C@@H]3CC=C4C[C@@H](OC(=O)CCCc5ccc(N(CCCl)CCCl)cc5)CC[C@]4(C)[C@H]3CC[C@]12C",
    "metabolised at 24 h (%)": 37
  },
  {
    "Compound Smiles": "CC(=O)[C@H]1CC[C@H]2[C@@H]3CC=C4C[C@@H](OC(=O)CCCc5ccc(N(CCCl)CCCl)c([N+](=O)[O-])c5)CC[C@]4(C)[C@H]3CC[C@]12C",
    "metabolised at 24 h (%)": 37
  },
  {
    "Compound Smiles": "C[C@]12CC[C@H](OC(=O)CCCc3ccc(N(CCCl)CCCl)c([N+](=O)[O-])c3)CC1=CC[C@@H]1[C@@H]2CC[C@]2(C)C(=O)CC[C@@H]12",
    "metabolised at 24 h (%)": 51
  },
  {
    "Compound Smiles": "C[C@]12CC[C@H](OC(=O)CCCc3ccc(N(CCCl)CCCl)cc3)CC1=CC[C@@H]1[C@@H]2CC[C@]2(C)C(=O)CC[C@@H]12",
    "metabolised at 24 h (%)": 51
  }
]

###

test system: MDA-MB-468; experiment: Cytotoxicity against human MDA-MB-468 cells […] after 5 days by MTT assay; format: functional, cell-based; details: MDA-MB-468, 120 h
Quick list: IC50 per entry.
Reported Endpoint: IC50 (µM)

[
  {
    "Compound Smiles": "CC(=O)[C@H]1CC[C@H]2[C@@H]3CC=C4C[C@@H](OC(=O)CCCc5ccc(N(CCCl)CCCl)c([N+](=O)[O-])c5)CC[C@]4(C)[C@H]3CC[C@]12C",
    "Assayed System": "MDA-MB-468",
    "Value": 19.3
  },
  {
    "Compound Smiles": "C[C@]12CC[C@H](OC(=O)CCCc3ccc(N(CCCl)CCCl)cc3)CC1=CC[C@@H]1[C@@H]2CC[C@]2(C)C(=O)CC[C@@H]12",
    "Assayed System": "MDA-MB-468",
    "Value": 5.48
  },
  {
    "Compound Smiles": "C[C@]12CC[C@H](OC(=O)CCCc3ccc(N(CCCl)CCCl)c([N+](=O)[O-])c3)CC1=CC[C@@H]1[C@@H]2CC[C@]2(C)C(=O)CC[C@@H]12",
    "Assayed System": "MDA-MB-468",
    "Value": 7.25
  },
  {
    "Compound Smiles": "CC(=O)[C@H]1CC[C@H]2[C@@H]3CC=C4C[C@@H](OC(=O)CCCc5ccc(N(CCCl)CCCl)cc5)CC[C@]4(C)[C@H]3CC[C@]12C",
    "Assayed System": "MDA-MB-468",
    "Value": 10.3
  },
  {
    "Compound Smiles": "O=C(O)CCCc1ccc(N(CCCl)CCCl)cc1",
    "Assayed System": "MDA-MB-468",
    "Value": 0.65
  },
  {
    "Compound Smiles": "O=C(O)CCCc1ccc(N(CCCl)CCCl)c([N+](=O)[O-])c1",
    "Assayed System": "MDA-MB-468",
    "Value": 1.16
  }
]
